FYI, the data here is from the RNAGym collection of RNA variant scans (doi:10.1101/gr.219683.116).

B1: mRNA-splicing (parent)
chain: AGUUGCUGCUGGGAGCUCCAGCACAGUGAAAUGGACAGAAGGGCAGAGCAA

# Variants of: B1
# protocol: exon inclusion enrichment index; higher = more inclusion; WT1 exon 5 minigene, HEK293
Let's look at some variants and their measured exon inclusion enrichment index.

// known answers, use as guide
G5A U7C G8A U10C A29C A30G
3.21
A39U
0.000772
G5C C6A U7C G8A U10A G41C
0.467
G5A U7C G8A U10C G15A C16A
1.46
C6A U7A G8A U10A
0.0891

Prompt line: Reported exon inclusion enrichment index for G5C C6U G8C C9U U10C C16U : what is it?
Response line: 2.36

Prompt line: Reported exon inclusion enrichment index for G5C C6A U7C G8A U10A U17C C18U : what is it?
Response line: 0.0619
